EC50 values, listed per item
tested on: HIV-1NL4-3 wildtype; assay: Luminescence Reduction Assay, luciferase reporter virus in MT4 cells; assay type: cell-based; conditions: Human immunodeficiency virus 1, MT4, read-out: EC50 (μM) MT4 cells HIV-1NL4-3 wildtype 2% FBS
parameter: EC50

compound | measured result
COc1cc(OC(F)(F)F)cc(-c2cc(-c3nccc4c3CNC4=O)nn2-c2ccc(F)c(Cl)c2)c1 [Example 27] | 0.0384 µM
Cc1cc(F)cc(-c2cc(-c3nccc4c3CNC4=O)nn2-c2ccc(F)c(Cl)c2)c1 [Example 22] | 0.0009 µM
O=C1NCc2c1cccc2-c1cc(-c2ccc(F)c(OC(F)(F)F)c2)n(-c2cccc(Cl)c2)n1 [Example 44] | 0.533 µM
O=C1NCc2c1ccnc2-c1cc(-c2cc(F)cc(Cl)c2)n(-c2ccc(F)c(Cl)c2)n1 [Example 1] | 0.0015 µM
Cc1cc(F)cc(-c2cc(-c3cccc4c3CNC4=O)nn2-c2ccc(F)c(Cl)c2)c1 [Example 23] | 0.015 µM
O=C1NCc2c1cccc2-c1cc(-c2cc(F)cc(OC(F)(F)F)c2)n(-c2cccnc2)n1 [Example 7] | 0.0107 µM
O=C1NCc2c1ccnc2-c1cc(-c2cc(F)cc(OC(F)(F)F)c2)n(-c2cccnc2)n1 [Example 6] | 0.0024 µM
O=C1NCc2c1ncnc2-c1cc(-c2cc(Cl)cc(OC(F)(F)F)c2)n(-c2cccnc2)n1 [Example 45] | 0.0005 µM
O=C1NCc2c1cccc2-c1cc(-c2cc(F)cc(Cl)c2)n(-c2cccc(Cl)c2)n1 [Example 41] | 0.0112 µM
O=C1NCc2c1ccnc2-c1cc(-c2cc(Br)cc(OC(F)F)c2)n(-c2cccnc2)n1 [Example 19] | 0.0003 µM
O=C1NCc2c1ccnc2-c1cc(-c2cc(Br)cc(OC(F)F)c2)n(-c2ccnc(Cl)c2)n1 [Example 20] | 0.001 µM
N#Cc1cccc(-c2cc(-c3nccc4c3CNC4=O)nn2-c2ccc(F)cc2)c1 [Example 35] | 0.0593 µM
O=C1NCc2c1ccnc2-c1cc(-c2cc(Cl)cc(OC(F)(F)F)c2)n(-c2ccc(F)c(Cl)c2)n1 [Example 9] | 0.0128 µM
O=C1NCc2c1ccnc2-c1cc(-c2cc(Cl)cc(OC(F)F)c2)n(-c2cccnc2)n1 [Example 16] | 0.0005 µM
O=C1NCc2c1ccnc2-c1cc(-c2cc(F)cc(Cl)c2)n(-c2cccnc2)n1 [Example 2] | 0.0013 µM
O=C1NCc2c1ccnc2-c1cc(-c2cc(Cl)cc(OC(F)(F)F)c2)n(-c2cccnc2)n1 [Example 10] | 0.0012 µM
COc1cccc(-n2nc(-c3cccc4c3CNC4=O)cc2-c2ccnc(Cl)c2)c1 [Example 40] | 0.0517 µM
O=C1NC(=O)c2c1cccc2-c1cc(-c2cc(F)cc(OC(F)(F)F)c2)n(-c2cccnc2)n1 [Example 8] | 0.643 µM
O=C1NCc2c1ccnc2-c1cc(-c2cc(Cl)cc(OC(F)F)c2)n(-c2ccnc(Cl)c2)n1 [Example 17] | 0.0011 µM
O=C1NCc2c1ccnc2-c1cc(-c2cc(F)cc(Cl)c2)n(-c2cccc(Cl)c2)n1 [Example 26] | 0.0017 µM
N#Cc1cc(-n2nc(-c3cccc4c3CNC4=O)cc2-c2cc(F)cc(Cl)c2)ccc1F [Example 25] | 0.0009 µM
COc1cccc(-n2nc(-c3nccc4c3CNC4=O)cc2-c2ccnc(Cl)c2)c1 [Example 39] | 0.0075 µM
O=C1NCc2c1ccnc2-c1cc(-c2cc(Br)cc(OC(F)(F)F)c2)n(-c2ccc(F)c(Cl)c2)n1 [Example 12] | 0.0089 µM
O=C1NCc2c1cccc2-c1cc(-c2cc(Br)cc(OC(F)F)c2)n(-c2cccnc2)n1 [Example 21] | 0.0063 µM
O=c1[nH][nH]c2c(-c3cc(-c4cc(F)cc(Cl)c4)n(-c4ccc(F)c(Cl)c4)n3)cccc12 [Example 29] | 0.39 µM
